- Test system: B3 three-finger zinc finger protein (Sp1C framework, designed) (synthetic)
- assay.info: EMSA
- measurement.setup: Zn buffer (90 uM ZnCl2, 90 mM KCl, 1 mM MgCl2), 3 h room temperature
readout.name: Kd (nM)
Number only, in nM; omit the unit.

Prompt line: Quick one: Kd of GGAGGGGAC [B3 target site oligonucleotide] ?
Response line: 15

Where do the numbers come from? From patent US7741110.
